// provenance: paper PMC10464304

Target: T1, GST-hUHRF1-TTD (126-280) E153D (human, UniProt Q96T88 126-280, E153D)
T1 construct: Tandem Tudor domain (TTD) of human UHRF1, UniProt Q96T88, residues 126-280; also called TTD E153D; source: E. coli, purified (Glutathione Agarose 4B); not shown: GST, N-terminal, kept
T1 sequence (looked up): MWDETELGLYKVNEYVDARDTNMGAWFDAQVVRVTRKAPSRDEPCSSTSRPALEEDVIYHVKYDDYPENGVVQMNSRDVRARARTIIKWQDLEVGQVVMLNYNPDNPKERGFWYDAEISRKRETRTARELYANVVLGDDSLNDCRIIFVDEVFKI
Test: fluorescence polarisation; fluorescence anisotropy titration; 100 nM FITC-labeled peptide in the cuvette, protein added stepwise; 23°C; 100 mM KCl, 20 mM HEPES pH 7.5, 10% v/v glycerol
Conditions: both partners purified
No end group written: not given here. Me3 = trimethyl (trimethyl-lysine)
Observable: Kd
The number alone won't do; follow it with the unit.

Task item: Dear colleague, I am looking for the recorded Kd of the following binder: ARTK(Me)QTARK(Me3)STGGKAPRKQ (peptide, UniProt P68431 2-20, looked up, also: FITC-labeled (position not given here), histone H3 N-terminal tail, residues 1-19; also called H3K4me1-K9me3; H3 K4me1-K9me3) [FITC-labeled H3(1-19) peptide with K4me1 and K9me3]
Reply: 50 nM
